Target: Bromodomain-containing protein 4 (Homo sapiens)
Test: Inhibition of BRD4 BD1 (unknown origin) incubated for 15 mins by TR-FRET method
Kindly supply the reported IC50 values for the records listed here.

[Q] # get_value(readout='IC50', item= Cc1cc(C)c(CNC(=O)c2cc(-c3ccc(NC(=O)CCNC(=O)C[C@@H]4N=C(c5ccc(Cl)cc5)c5c(sc(C)c5C)-n5c(C)nnc54)cc3)cc3c2cnn3C(C)C)c(=O)[nH]1 )
[A] 124 nM

[Q] # get_value(readout='IC50', item= Cc1cc(C)c(CNC(=O)c2cc(N3CCC(CNC(=O)C[C@@H]4N=C(c5ccc(Cl)cc5)c5c(sc(C)c5C)-n5c(C)nnc54)CC3)cc3c2cnn3C(C)C)c(=O)[nH]1 )
[A] 353 nM

[Q] # get_value(readout='IC50', item= Cc1cc(C)c(CNC(=O)c2cc(NCCCNC(=O)C[C@@H]3N=C(c4ccc(Cl)cc4)c4c(sc(C)c4C)-n4c(C)nnc43)cc3c2cnn3C(C)C)c(=O)[nH]1 )
[A] 206 nM

[Q] # get_value(readout='IC50', item= Cc1cc(C)c(CNC(=O)c2cc(-c3ccc(NC(=O)CNC(=O)C[C@@H]4N=C(c5ccc(Cl)cc5)c5c(sc(C)c5C)-n5c(C)nnc54)cc3)cc3c2cnn3C(C)C)c(=O)[nH]1 )
[A] 138 nM

[Q] # get_value(readout='IC50', item= Cc1cc(C)c(CNC(=O)c2cc(NCCCCCNC(=O)C[C@@H]3N=C(c4ccc(Cl)cc4)c4c(sc(C)c4C)-n4c(C)nnc43)cc3c2cnn3C(C)C)c(=O)[nH]1 )
[A] 134 nM
